# test_details: drug combination growth inhibition, ovarian cancer – cell-based, oncology-focused library, rucaparib conditional, profiling panel (AID 1508598)
# conditions_used: patient-derived ovarian cancer cells, CellTiter-Glo viability, 144 h; at 1.25 µM; OCI-C5x cells; with rucaparib 10 µM; active compounds read low; 100% = cells with rucaparib alone
*1 amine or outer side, *2 acyl side, *3 side chain or, on linkers, in order; H or OH if unused. Where a SMILES comes first, the peptide text is derived from it. Bridges are numbered along the chain shown (N, C = ends). Roman numbers before positions name the chains, in order. [ ]: non-standard residue; d: D form. The star is where a group is joined. Hexamethylenediamine = C(CCCN[*:2])CCN[*:1]; Dip = N[C@H](C(=O)O)C(c1ccccc1)c1ccccc1; Chg = N[C@H](C(=O)O)C1CCCCC1; NMeA = CN[C@@H](C)C(=O)O; Cbz = O=C(OCc1ccccc1)*; CH2F = FC*
measure: viability (%)
The reply should be a number in %, with the unit left off.

Kindly note the recorded viability for O=C(O)c1cc(I)ccc1NC(=O)[C@H](Cc1ccccc1)NCc1ccccc1 , which is 132

Record summary for COc1cc(Br)c(Nc2nc(-c3c(C)nc4ncccn34)cs2)c(Br)c1 : reported viability = 122

Reported viability of CCOc1ccc(Cc2cc([C@@H]3O[C@H](CO)[C@@H](O)[C@H](O)[C@@H]3O)ccc2Cl)cc1 : 111

Per the record, CC(=O)O[C@@]1(C(C)=O)CC[C@H]2[C@@H]3C=C(C)C4=CC(=O)CC[C@]4(C)[C@@H]3CC[C@@]21C has viability of 116

The reported viability of the molecule COC(=O)C[C@H](NC(=O)[C@H](C)NC(=O)[C@@H](NC(=O)OCc1ccccc1)C(C)C)C(=O)CF (Cbz-Val-Ala-Asp(OMe)-CH2F) was 117

The reported value for CCc1c2c(nc3ccc(OC(=O)N4CCC(N5CCCCC5)CC4)cc13)-c1cc3c(c(=O)n1C2)COC(=O)[C@@]3(O)CC in terms of viability is 64.4

Lab book: viability of c1ccc(Cn2c(-c3ccc(OC[C@H](C4CCNCC4)n4c(-c5ccccc5)nc5ccccc54)cc3)nc3ccccc32)cc1 noted as 130

// CC(=O)[C@]1(O)Cc2c(O)c3c(c(O)c2[C@H](O[C@H]2C[C@H](N)[C@H](O)[C@H](C)O2)C1)C(=O)c1ccccc1C3=O : viability value = 1.52

viability measured on CC(=O)O[C@H]1C(=O)[C@@]2(C)C([C@H](OC(=O)c3ccccc3)[C@]3(O)C[C@H](OC(=O)[C@H](O)[C@@H](NC(=O)c4ccccc4)c4ccccc4)C(C)=C1C3(C)C)[C@]1(OC(C)=O)CO[C@@H]1C[C@H]2O (stereo partly drawn) = 30

viability for CC1(C)O[C@@H]2C[C@H]3[C@@H]4CCC5=CC(=O)C=C[C@]5(C)[C@]4(F)[C@H](O)C[C@]3(C)[C@@]2(C(=O)CO)O1 is 109

# viability of C[C@@]1(c2nc3c(C(N)=O)cccc3[nH]2)CCCN1 = 111

Entry under test: NC(=O)CCCSc1nc(N)nc(-c2c(Cl)cc3c4c(cccc24)COC3)n1 . Its viability was 16

Value of viability reported for the molecule CC(=O)O[C@@]1(C(C)=O)CC[C@H]2[C@@H]3C[C@H](C)C4=CC(=O)CC[C@]4(C)[C@@H]3CC[C@@]21C is 107

CO[C@H]1C[C@H]2CC[C@@H](C)[C@@](O)(O2)C(=O)C(=O)N2CCCC[C@H]2C(=O)O[C@H]([C@H](C)C[C@@H]2CC[C@H](OP(C)(C)=O)[C@H](OC)C2)CC(=O)[C@H](C)/C=C(\C)[C@@H](O)[C@@H](OC)C(=O)[C@H](C)C[C@H](C)/C=C/C=C/C=C/1C has a reported viability of 104

viability reading for COc1cc2c(cc1O)CC[C@@H]1[C@H]2CC[C@]2(C)[C@H](O)CC[C@@H]12 : 107

So for CN(C)CCSSCCNC(=O)C1CCN(C(=O)CSc2ccc(Cl)cc2)CC1 , the logged viability turned out to be 120

Looking up C[C@]12CC[C@H]3c4ccc(O)cc4CC[C@H]3[C@@H]1CC[C@H]2O , I see its viability listed as 100

viability recorded for this molecule, Cc1[nH]c(C=C2C(=O)Nc3ccc(S(=O)(=O)Cc4c(Cl)cccc4Cl)cc32)c(C)c1C(=O)N1CCC[C@@H]1CN1CCCC1 , is 122

viability recorded for this molecule, COC1=C2C[C@H](C)C[C@@H](OC)[C@H](O)[C@H](C)/C=C(\C)[C@H](OC(N)=O)[C@@H](OC)/C=C/C=C(\C)C(=O)NC(=CC1=O)C2=O , is 9.96

The reported value for COc1cc(=C2C=c3ccccc3=N2)[nH]/c1=C\c1[nH]c(C)cc1C in terms of viability is 89.4

Memo: COc1cccc2c1C(=O)c1c(O)c3c(c(O)c1C2=O)C[C@@](O)(C(=O)CO)C[C@H]3O[C@H]1C[C@H](N)[C@H](O)[C@H](C)O1 , reported viability: 50

Input CC(C)C[C@H](NP(=O)(O)O[C@@H]1O[C@@H](C)[C@H](O)[C@@H](O)[C@H]1O)C(=O)N[C@@H](Cc1c[nH]c2ccccc12)C(=O)O . Output viability: 132

Short answer for Cc1cc([N+](=O)[O-])ccc1NS(=O)(=O)c1cc(Cl)ccc1Cl : viability was 102

Item: CC(C)NCCCn1c(Sc2cc3c(cc2I)OCO3)nc2c(N)ncnc21 | viability: 77.5

Form field viability, entry CN[C@@H](C)C(=O)N[C@H](C(=O)N1CCC[C@H]1C(=O)N[C@H](C(=O)NCCCCCCNC(=O)[C@@H](NC(=O)[C@@H]1CCCN1C(=O)[C@@H](NC(=O)[C@H](C)NC)C1CCCCC1)C(c1ccccc1)c1ccccc1)C(c1ccccc1)c1ccccc1)C1CCCCC1 (I: H-[NMeA][Chg]P[Dip] / II: H-[NMeA][Chg]P[Dip]; linker I:C-II:C via Hexamethylenediamine) : 96.9

// sample CC(=O)OCC(=O)[C@]1(O)[C@H](C)C[C@H]2[C@@H]3CCC4=CC(=O)C=C[C@]4(C)[C@]3(F)[C@H](O)C[C@@]21C , its viability was 122

GET /value?item= COc1cc(C(=O)NC2CCN(C)CC2)ccc1Nc1ncc2c(n1)N(C1CCCC1)CC(F)(F)C(=O)N2C &field=viability returns 31

The measured viability associated with C[C@H](O[C@H]1OCCN(Cc2n[nH]c(=O)[nH]2)[C@H]1c1ccc(F)cc1)c1cc(C(F)(F)F)cc(C(F)(F)F)c1 reads 120
